# test-system: muscarinic cholinergic receptor
# measurement-description: [^3 H]-Cis-methyldioxolane (^3 H-CD) Binding Assay (High Affinity), rat cerebral cortex homogenate
# condition-parameters: 1.0 nM ^3 H-CD, 25° C., 120 minutes, pH 7.4, hydrochloride
Structures can show the parent of a compound that is named as a salt.
property: IC50 (nM)

CSc1sccc1C#CCN1CCCCC1 [hydrochloride]    32.5

P. CSc1cscc1C#CCN1CCCC1 [hydrochloride]
Q. CSc1cscc1C#CCN(C)C [hydrochloride]
Asked: Select one: P or Q . Criterion: greater recorded IC50. In your reply, give the label of the chosen option.
Given back: Q

====

# test-system: muscarinic cholinergic receptor
# measurement-description: [^3 H]-Cis-methyldioxolane (^3 H-CD) Binding Assay (High Affinity), rat cerebral cortex homogenate
# condition-parameters: 1.0 nM ^3 H-CD, 25° C., 120 minutes, pH 7.4, hydrochloride
Structures can show the parent of a compound that is named as a salt.
property: IC50 (nM)

Reference set, count: 2
CSc1sccc1C#CCN(C)C [hydrochloride]    969
CSc1ccsc1C#CCN1CCCC1 [hydrochloride]    44

I. CSc1ccsc1C#CCN1CCCCC1 [hydrochloride]
II. CSc1ccsc1C#CCN(C)C [hydrochloride]
Asked: Select one: I or II . Criterion: greater recorded IC50. In your reply, give the label of the chosen option.
Given back: II
(II: 1240 nM, I: 44 nM)
